test: Tmax in Sprague-Dawley rat at 30 mg/kg, po measured upto 24 hrs by UPLC-MS/MS; format: ADME, organism-based; conditions: in vivo
QUANTITY_NAME: Tmax (h)
Please respond with the number in h and leave the unit unwritten.

Record `COc1ccc(OC)c(Nc2cc(NC(=O)Nc3c(Cl)cccc3Cl)ncn2)c1` . Reported Tmax: 1.5

* * *

test system: NCI-H1581; test: Antiproliferative activity against human NCI-H1581 cells assessed as inhibition of cell growth at 10 uM incubated for 48 hrs by MTT assay relative to control; type: functional; settings: NCI-H1581, 48 h
Outcome label depends on inhibition at 10 µM relative to 50%: at/above gives y, below gives n.

Some solved cases for reference:
[
  {
    "SMILES_TEXT": "COc1cc(NC(=O)Nc2cc(Nc3cc(F)ccc3OC)ncn2)cc(OC)c1",
    "LABEL": "n"
  },
  {
    "SMILES_TEXT": "COc1cc(Br)ccc1Nc1cc(NC(=O)Nc2c(Cl)cccc2Cl)ncn1",
    "LABEL": "n"
  },
  {
    "SMILES_TEXT": "COc1ccc(Nc2cc(NC(=O)Nc3c(Cl)cccc3Cl)ncn2)cc1C",
    "LABEL": "n"
  },
  {
    "SMILES_TEXT": "COc1cc(NC(=O)Nc2cc(Nc3ccc(C)c(C)c3)ncn2)cc(OC)c1",
    "LABEL": "n"
  },
  {
    "SMILES_TEXT": "COc1cc(NC(=O)Nc2cc(Nc3ccc(C)c(F)c3)ncn2)cc(OC)c1",
    "LABEL": "n"
  }
]

# bool: inhibition at 10 µM of `COc1ccc(F)cc1Nc1cc(NC(=O)Nc2c(Cl)cccc2Cl)ncn1` >= 50%
y

Confirm if inhibition at 10 µM reported for the molecule `Cc1ccc(Nc2cc(NC(=O)Nc3c(Cl)cccc3Cl)ncn2)cc1C` is 50% or above.
y

Decide: inhibition at 10 µM of `COc1ccc(Br)cc1Nc1cc(NC(=O)Nc2c(Cl)cccc2Cl)ncn1` >= 50%?
y

Does inhibition at 10 µM meet or surpass 50% for `COc1cc(NC(=O)Nc2cc(Nc3ccc(F)c(Cl)c3)ncn2)cc(OC)c1` ?
y

* * *

target: Epidermal growth factor receptor (Homo sapiens, UniProt P00533); test: Inhibition of N-terminal GST-tagged human EGFR (d746-750AA) expressed in baculovirus at 10 uM using FAM-labelled peptide as substrate pre-incubated for 10 mins followed by substrate addition by mobility shift assay relative to control
Sequence (P00533 whole entry): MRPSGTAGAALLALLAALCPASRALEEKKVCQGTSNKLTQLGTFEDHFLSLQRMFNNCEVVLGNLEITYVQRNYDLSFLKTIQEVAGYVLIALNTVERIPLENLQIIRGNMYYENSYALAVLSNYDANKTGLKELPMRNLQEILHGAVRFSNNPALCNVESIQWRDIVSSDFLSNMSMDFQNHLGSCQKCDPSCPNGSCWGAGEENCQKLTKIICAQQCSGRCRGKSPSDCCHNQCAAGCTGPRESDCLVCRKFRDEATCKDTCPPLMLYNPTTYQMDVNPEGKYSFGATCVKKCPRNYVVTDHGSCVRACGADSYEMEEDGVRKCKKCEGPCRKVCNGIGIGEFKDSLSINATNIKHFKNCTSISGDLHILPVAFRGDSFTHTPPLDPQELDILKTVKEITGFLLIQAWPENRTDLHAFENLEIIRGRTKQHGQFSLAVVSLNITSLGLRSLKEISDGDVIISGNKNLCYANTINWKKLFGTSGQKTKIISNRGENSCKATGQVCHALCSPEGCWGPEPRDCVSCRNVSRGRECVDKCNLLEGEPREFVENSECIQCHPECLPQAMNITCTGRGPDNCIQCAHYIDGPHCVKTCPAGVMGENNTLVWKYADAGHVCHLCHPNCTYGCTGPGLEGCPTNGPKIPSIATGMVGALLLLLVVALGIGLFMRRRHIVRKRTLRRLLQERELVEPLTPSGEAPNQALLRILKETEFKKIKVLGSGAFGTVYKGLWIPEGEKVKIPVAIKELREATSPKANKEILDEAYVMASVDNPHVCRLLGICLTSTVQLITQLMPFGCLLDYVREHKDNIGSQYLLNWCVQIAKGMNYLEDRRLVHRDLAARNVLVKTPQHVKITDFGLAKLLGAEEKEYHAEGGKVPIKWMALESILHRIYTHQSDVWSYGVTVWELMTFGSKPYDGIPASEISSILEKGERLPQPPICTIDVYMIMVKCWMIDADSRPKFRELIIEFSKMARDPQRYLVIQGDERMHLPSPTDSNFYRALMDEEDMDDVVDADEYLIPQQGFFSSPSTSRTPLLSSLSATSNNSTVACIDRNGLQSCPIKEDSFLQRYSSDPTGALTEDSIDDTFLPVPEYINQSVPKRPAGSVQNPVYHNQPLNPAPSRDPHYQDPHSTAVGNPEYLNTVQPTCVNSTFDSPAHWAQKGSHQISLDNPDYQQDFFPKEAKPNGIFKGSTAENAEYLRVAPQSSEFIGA
QUANTITY_NAME: inhibition (%)
Give just the number in %; leave the unit off.

The compound listed as `COc1cc(NC(=O)Nc2cc(Nc3ccc(C)c(C)c3)ncn2)cc(OC)c1` has a reported inhibition of 43.4

# inhibition (compound: `CCc1cccc(Nc2cc(NC(=O)Nc3cc(OC)cc(OC)c3)ncn2)c1` ) is 26

Value of measured inhibition for the entry `COc1cc(Nc2cc(NC(=O)Nc3c(Cl)cccc3Cl)ncn2)cc(C(F)(F)F)c1` : 48.4

Consider `CC(C)(C)c1cccc(Nc2cc(NC(=O)Nc3c(Cl)cccc3Cl)ncn2)c1` . Its measured inhibition is 57.4

GET /value?item= `COc1cc(Nc2cc(NC(=O)Nc3c(Cl)cccc3Cl)ncn2)cc(OC)c1` &field=inhibition returns 84.2
